Where do the numbers come from? From patent US20230183352A1.

# ASSAY_TARGET: Biotin QP004.3 (biotin-PDL1-FC) (human) (UniProt Q9NZQ7)
# Sequence (Q9NZQ7 19-238 limits assumed): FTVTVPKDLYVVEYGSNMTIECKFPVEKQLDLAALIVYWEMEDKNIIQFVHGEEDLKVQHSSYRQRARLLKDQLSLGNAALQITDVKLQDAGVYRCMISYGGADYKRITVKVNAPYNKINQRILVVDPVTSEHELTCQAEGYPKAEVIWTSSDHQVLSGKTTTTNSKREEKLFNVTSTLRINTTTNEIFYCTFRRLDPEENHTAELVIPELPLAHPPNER
# MEASUREMENT_NOTES: blocking ELISA, PD1-FC coated, biotin-PDL1-FC plus antibody; competitor PD1-FC
MEASURED_QUANTITY: ELISA reading at 11.1111 nM antibody

In the examples that follow, each entry is paired with its recorded ELISA reading at 11.1111 nM antibody.
{"columns": ["BINDER", "ELISA reading at 11.1111 nM antibody"],
 "data": [
  ["QP324 (Fc fusion, not shown: a dimerising Fc or GST) EVQLLESGGGLVQPGGSLRLSCAASGFTYGTYAMSWVRQAPGKGLEWVACIDIYGRTSYTDPVKGRFTISQDNSKNTLYLQMNSLRAEDTAVYYCAARDFGYCTASWVHEGFSRYWGQGTLVTVSS", 0.753],
  ["QP325 (Fc fusion, not shown: a dimerising Fc or GST) EVQLLESGGGLVQPGGSLRLSCAASGFTYGTYAMSWFRQAPGKGLEGVACIDIYGRTSYTDPVKGRFTISQDNSKNTLYLQMNSLRAEDTAVYYCAARDFGYCTASWVHEGFSRYWGQGTLVTVSS", 0.513]
]}

1: QP1166 (Fc fusion, not shown: a dimerising Fc or GST) QVQLVESGGDSVQPGGSLRLSCAASGFTYGTYAMSWFRQAPGKEREGVACIDIYGRTSYTDPVKGRFTISQDNAKNTLYLQMNSLKPEDTAMYYCAARDFGYCTASWVHEGFSRYWGQGTQVTVSS
2: QP320 (Fc fusion, not shown: a dimerising Fc or GST) EVQLLESGGGLVQPGGSLRLSCAASGFTYGTYAMSWVRQAPGKGLEWVSCIDIYGRASYTDPVKGRFTISRDNSKNTLYLQMNSLRAEDTAVYYCAARDFGYCTASWVHEGFSRYWGQGTLVTVSS
-- ask Hi, I'm comparing 1 with 2 and wondering which one has the bigger number for ELISA reading at 11.1111 nM antibody. Any idea? Could you answer with the label of the item you picked?
-- reply 2
(2: 1.12, 1: 0.508)
